B1: Twister Ribozyme (parent)
chain: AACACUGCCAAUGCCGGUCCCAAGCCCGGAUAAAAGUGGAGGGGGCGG

Variants of: B1
Assay: self-cleavage, relative activity (ratio to wild type); higher = more cleavage; co-transcriptional
Classify on self-cleavage using bucket 1 = under 0.1, bucket 2 = from 0.1 up to 0.4, bucket 3 = 0.4 and over

Input line: GET /class?item= AACACUACCAAUGCCGGUCCCAAGCCCGAAUAAAAGUGGAGGGGGCGG [G7A G29A]
Output line: bucket 2

Input line: Another variant to check: AGCACUGCAAAUGCCGGUCCCAAGCCCGGAUAAAAGUGGAGGGGGCGG [A2G C9A]
Output line: bucket 2

Input line: Another variant to check: GACAUUGCCAAUGCCGGUCCCAAGCCCGGAUAAAAGUGGAGGGGGCGG [A1G C5U]
Output line: bucket 2

Input line: Another variant to check: AACACUGCCAAUGCCGUUCCCAAGCCCGGAUAAAAGUGGAGCGGGCGG [G17U G42C]
Output line: bucket 2

Input line: Another variant to check: AACAAUGCCAAUGCCGGUCCCAAGCCCGGAUAAAAGUGGAGGGGGCGU [C5A G48U]
Output line: bucket 3

Input line: Another variant to check: UACACUGCCAAUGCCGGUCCCAAGCCCGGAUAAAAGUGGAGGGGCCGG [A1U G45C]
Output line: bucket 1

Input line: Another variant to check: AACACUGCCAAUGCCGGUCCCAAUCCAGGAUAAAAGUGGAGGGGGCGG [G24U C27A]
Output line: bucket 2

Input line: Another variant to check: AACACUGCCAAUACCGGUCCCAAGCCCGGAUAAAGGUGGAGGGGGCGG [G13A A35G]
Output line: bucket 2

Input line: Another variant to check: AACACUGCCAAUGCCGGUCCCAAGCCCAAAUAAAAGUGGAGGGGGCGG [G28A G29A]
Output line: bucket 3

Input line: Another variant to check: AACACAGCCAAUGCCGGUCCCAAGCCCGGACAAAAGUGGAGGGGGCGG [U6A U31C]
Output line: bucket 3

Input line: Another variant to check: AACAAUGCCAAUGCCGGUCCCAACCCCGGAUAAAAGUGGAGGGGGCGG [C5A G24C]
Output line: bucket 1

Input line: Another variant to check: AACACGGCCAAUGCCCGUCCCAAGCCCGGAUAAAAGUGGAGGGGGCGG [U6G G16C]
Output line: bucket 2

Input line: Another variant to check: GACACCGCCAAUGCCGGUCCCAAGCCCGGAUAAAAGUGGAGGGGGCGG [A1G U6C]
Output line: bucket 2

Input line: Another variant to check: AACGUUGCCAAUGCCGGUCCCAAGCCCGGAUAAAAGUGGAGGGGGCGG [A4G C5U]
Output line: bucket 3

Input line: Another variant to check: AACACUGCCAAUGCCGGUCCCAAGCACGGAUAAAAGUGGAGGGGGCAG [C26A G47A]
Output line: bucket 2

Ref: the RNAGym collection of RNA variant scans (doi:10.7554/elife.80360)
